# Assayed System: Genome polyprotein (dengue virus type 2)
# Sequence (P29990 2492-3391 limits assumed): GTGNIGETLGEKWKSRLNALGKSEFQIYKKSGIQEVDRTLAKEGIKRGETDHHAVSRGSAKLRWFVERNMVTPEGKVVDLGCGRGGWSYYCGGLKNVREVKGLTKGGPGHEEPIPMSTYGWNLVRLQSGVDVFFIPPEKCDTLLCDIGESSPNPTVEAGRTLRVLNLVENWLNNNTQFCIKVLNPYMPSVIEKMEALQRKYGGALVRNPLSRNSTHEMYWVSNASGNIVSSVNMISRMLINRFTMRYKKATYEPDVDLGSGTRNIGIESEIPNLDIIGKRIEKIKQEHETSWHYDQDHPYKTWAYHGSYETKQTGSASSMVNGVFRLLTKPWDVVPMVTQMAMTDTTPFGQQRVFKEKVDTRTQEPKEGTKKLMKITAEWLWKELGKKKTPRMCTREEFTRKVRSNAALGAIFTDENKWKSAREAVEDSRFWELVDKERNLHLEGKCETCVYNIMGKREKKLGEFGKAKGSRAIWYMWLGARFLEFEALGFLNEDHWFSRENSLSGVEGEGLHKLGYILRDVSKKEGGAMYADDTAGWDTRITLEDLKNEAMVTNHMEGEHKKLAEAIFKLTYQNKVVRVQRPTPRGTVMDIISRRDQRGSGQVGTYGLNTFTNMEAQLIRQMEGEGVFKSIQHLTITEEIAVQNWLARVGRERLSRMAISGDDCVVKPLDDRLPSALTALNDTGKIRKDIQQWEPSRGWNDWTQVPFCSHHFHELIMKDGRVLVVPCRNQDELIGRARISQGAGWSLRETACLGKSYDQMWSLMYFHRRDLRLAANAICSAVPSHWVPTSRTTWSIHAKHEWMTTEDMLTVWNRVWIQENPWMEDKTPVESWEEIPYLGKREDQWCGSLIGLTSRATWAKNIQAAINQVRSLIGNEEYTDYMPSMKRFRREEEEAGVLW
# Test Method Notes: flavivirus cap methylation enzyme inhibition – biochemical, confirmation dose response, primary screen (AID 588689)
# Format: functional
Active and inactive are the calls of the source. No rule for the calls is given here.
IC50 reference

INSERT INTO results (compound_structure, reported_measurement) VALUES
  ('O=C(O)c1cc(N/N=C/c2ccc(-c3ccccc3)cc2)ccc1Cl', '61.5 µM (active)'),
  ('CSc1nc(N)c(N=Nc2ccc([As](=O)(O)O)cc2)c(O)n1', '57.3 µM (active)'),
  ('N#C/C(=C\c1ccccc1)C(=O)NNS(=O)(=O)c1cccc([N+](=O)[O-])c1', '51.8 µM (active)');

I'd like to know its IC50. The molecule in question is CCCCn1c(NC(=O)c2ccc(Br)o2)c(S(=O)(=O)c2ccccc2)c2nc3ccccc3nc21
75.4 µM (active)

# repeat for COc1cc(C(C2C(=O)CC(C)(C)CC2=O)C2C(=O)CC(C)(C)CC2=O)ccc1O
62.3 µM (active)

# repeat for C=CCOc1ccc(C(c2c(O)nc(SC)nc2O)c2c(O)nc(SC)nc2O)cc1
33.3 µM (active)

// provenance: ChEMBL document CHEMBL1201862
